# Tested on: S. aureus AD3
# Experiment: MIC/MBC by broth micro dilution
# Assay type: cell-based
# Measurement parameters: Staphylococcus aureus; S. aureus AD3 (clinical strain); lowest concentration reducing viable counts by 99.9%
Classify: class 1 when MBC is strictly less than 20 µg/mL; class 0 when MBC is not.

Query :: Is MBC strictly under 20 µg/mL for the entry C=C[C@]1(C)C[C@@H](OC(=O)Cn2cc(CN3CCN(c4ccccc4)CC3)nn2)[C@]2(C)[C@H](C)CC[C@]3(CCC(=O)[C@H]32)[C@@H](C)[C@@H]1O [Compound 49] ?
Result :: class 1

Query :: Again, but for C=C[C@]1(C)C[C@@H](OC(=O)CSCCN(CC)CC)[C@]2(C)[C@H](C)CC[C@]3(CCC(=O)[C@H]32)[C@@H](C)[C@@H]1O [Tiamulin, tiamulin, reference compound]
Result :: class 1

Query :: Again, but for C=C[C@]1(C)C[C@@H](OC(=O)Cn2cc(CN3CCN(c4ccccc4F)CC3)nn2)[C@]2(C)[C@H](C)CC[C@]3(CCC(=O)[C@H]32)[C@@H](C)[C@@H]1O [Compound 53]
Result :: class 1

Query :: Again, but for C=CC1(C)CC(OC(=O)Cn2cc(CN3CCC(CCO)CC3)nn2)C2(C)C(C)CCC3(CCC(=O)C32)C(C)C1O (stereo not shown) [Compound 85]
Result :: class 0

Query :: Again, but for C=C[C@]1(C)C[C@@H](OC(=O)Cn2cc(CN3CCN(c4ccc(OC)cc4)CC3)nn2)[C@]2(C)[C@H](C)CC[C@]3(CCC(=O)[C@H]32)[C@@H](C)[C@@H]1O [Compound 61]
Result :: class 1

Query :: Again, but for C=C[C@]1(C)C[C@@H](OC(=O)Cn2cc(CN3CCN(c4cccc(C)c4)CC3)nn2)[C@]2(C)[C@H](C)CC[C@]3(CCC(=O)[C@H]32)[C@@H](C)[C@@H]1O [Compound 51]
Result :: class 1

Query :: Again, but for C=C[C@]1(C)C[C@@H](OC(=O)Cn2cc(CN3CCN(C)CC3)nn2)[C@]2(C)[C@H](C)CC[C@]3(CCC(=O)[C@H]32)[C@@H](C)[C@@H]1O [Compound 48]
Result :: class 0

Query :: Again, but for C=C[C@]1(C)C[C@@H](OC(=O)Cn2cc(CN3CCN(c4cccc(Cl)c4)CC3)nn2)[C@]2(C)[C@H](C)CC[C@]3(CCC(=O)[C@H]32)[C@@H](C)[C@@H]1O [Compound 57]
Result :: class 0

Query :: Again, but for C=CC1(C)CC(OC(=O)Cn2cc(CN3CCCC(CO)C3)nn2)C2(C)C(C)CCC3(CCC(=O)C32)C(C)C1O (stereo not shown) [Compound 84]
Result :: class 0

Query :: Again, but for C=C[C@]1(C)C[C@@H](OC(=O)Cn2cc(CN3CCN(c4ccccc4C)CC3)nn2)[C@]2(C)[C@H](C)CC[C@]3(CCC(=O)[C@H]32)[C@@H](C)[C@@H]1O [Compound 50]
Result :: class 1

Query :: Again, but for C=C[C@]1(C)C[C@@H](OC(=O)Cn2cc(CN3CCN(c4ccc(C)cc4)CC3)nn2)[C@]2(C)[C@H](C)CC[C@]3(CCC(=O)[C@H]32)[C@@H](C)[C@@H]1O [Compound 52]
Result :: class 0

Query :: Again, but for C=CC1(C)CC(OC(=O)Cn2cc(CN(C3CCCCC3)C3CCCCC3)nn2)C2(C)C(C)CCC3(CCC(=O)C32)C(C)C1O (stereo not shown) [Compound 81]
Result :: class 0

Query :: Again, but for C=C[C@]1(C)C[C@@H](OC(=O)Cn2cc(CN3CCN(c4cccc([N+](=O)[O-])c4)CC3)nn2)[C@]2(C)[C@H](C)CC[C@]3(CCC(=O)[C@H]32)[C@@H](C)[C@@H]1O [Compound 63]
Result :: class 1

Query :: Again, but for C=C[C@]1(C)C[C@@H](OC(=O)Cn2cc(CN3CCN(c4ccccc4O)CC3)nn2)[C@]2(C)[C@H](C)CC[C@]3(CCC(=O)[C@H]32)[C@@H](C)[C@@H]1O [Compound 65]
Result :: class 1

Query :: Again, but for C=C[C@]1(C)C[C@@H](OC(=O)Cn2cc(CN3CCN(c4ccc(F)cc4)CC3)nn2)[C@]2(C)[C@H](C)CC[C@]3(CCC(=O)[C@H]32)[C@@H](C)[C@@H]1O [Compound 55]
Result :: class 1

Query :: Again, but for C=C[C@]1(C)C[C@@H](OC(=O)Cn2cc(CN3CCN(c4ccc(O)cc4)CC3)nn2)[C@]2(C)[C@H](C)CC[C@]3(CCC(=O)[C@H]32)[C@@H](C)[C@@H]1O [Compound 67]
Result :: class 0
